These measurements were taken from ChEMBL document CHEMBL1131650.

- ASSAY TEXT: Compound was evaluated for dissociation constant (pKa)
- Assay type: physicochemical
VALUE TYPE: pKa
Numbers only.

Cc1cc2ncn(C)c2cc1C = 6
Cn1cnc2ccc([N+](=O)[O-])cc21 = 3.35
Cn1cnc2cc([N+](=O)[O-])ccc21 = 3.28
Cn1cnc2ccccc21 = 5.6
Cc1ccc2c(c1)ncn2C = 5.65

Look at each molecule and report its pKa.
1. Cc1ccc2ncn(C)c2c1
2. Cn1cnc2cc([N+](=O)[O-])c([N+](=O)[O-])cc21

[5.7, 1.6]
